Where do these numbers come from? They come from PubChem BioAssay.

biological target: Tumor necrosis factor receptor superfamily member 10B (Homo sapiens); test: caspase-8 TRAIL sensitization, hit retest, confirmation, cell-based, NB7+caspase-8, with/without TRAIL, luminescence panel (AID 651596); settings: NB7 neuroblastoma + caspase-8, TRAIL sensitization, luminescence viability, with TRAIL, mean of runs, at 10 µM, stronger effect = higher value
readout: activity (%)
One number for each entry, in %.

Check out these entries, answers already filled in.
>  <molecule>
CC1=CC2OC3CC4OC(=O)C=CC=CC(C(C)O)OCC(O)C(C)CC(=O)OCC2(CC1O)C4(C)C31CO1 (stereo not drawn)

>  <activity / %>
92.3

$$$$
>  <molecule>
COc1ccc(-n2nnnc2C(CCc2ccccc2)N2CCC(n3c(=O)[nH]c4ccccc43)CC2)cc1 (stereo not drawn)

>  <activity / %>
91.1

$$$$

Please turn your attention to the following entry.
activity reported for this molecule CC(=O)OC1C(=O)OCC23CCC4(C)OC4C2OC2CC(OC(=O)C=CC=CC(=O)OCCC1C)C3(C)C21CO1 (stereo not drawn) : 89.6
